System: PC-3 prostate
Test: NCI-60 one-dose screen, 48 h
Conditions: 10 µM unless noted
Compounds without any hit were thinned out: in the full panel of roughly 83,000, 20% have a hit. Active and inactive are the calls of the source. Rule for the calls: active = growth percent below 10; inactive = the rest.
In this exercise, the only acceptable responses are 1 (yes) (active), 0 (no) (inactive)

| COMPOUND | SYSTEM TESTED | ASSIGNED CATEGORY |
| --- | --- | --- |
| N#C/C(=N\Nc1ccc(Cl)cc1)C(=O)C1CC1 | PC-3 prostate | 0 (no) |

Answer briefly: the call reported for `O=C(Cc1nc2cc(Cl)c(Cl)cc2nc1CC(=O)c1cccnc1)c1cccnc1` in this assay.
0 (no)

Answer briefly: the call reported for `Cc1cc(C(=C2C=CC(=Nc3ccccc3)C=C2)c2ccc(Nc3ccccc3)cc2)ccc1N` in this assay.
1 (yes)

Answer briefly: the call reported for COc1ccc(C(Cn2ccnc2)Sc2ccc(Cl)c(Cl)c2)cc1 (stereo unspecified) in this assay.
0 (no)

Answer briefly: the call reported for `Nc1nc(N)c2cc(Sc3cccc(C(F)(F)F)c3)ccc2n1` in this assay.
0 (no)

Answer briefly: the call reported for `CCOC(=O)c1cc(CC)sc1NC(=O)CC(C)=O` in this assay.
0 (no)

Answer briefly: the call reported for `Cc1nnc(N/N=C/c2ccc([N+](=O)[O-])o2)[nH]c1=O` in this assay.
1 (yes)

Answer briefly: the call reported for OC(c1cc(C23CC4CC(CC(C4)C2)C3)nc2c(Cl)cc(Cl)cc12)C1CCCCN1 (stereo unspecified) in this assay.
1 (yes)

Answer briefly: the call reported for `CC1(C)N=c2cc3c(cc2N1c1ccc(Cl)cc1)=Nc1ccccc1N3c1ccc(Cl)cc1` in this assay.
1 (yes)

Answer briefly: the call reported for `O=C(/C=C/c1ccccc1)c1ccccc1O` in this assay.
0 (no)

Answer briefly: the call reported for `CC(C)c1ccc(Nc2n[nH]c(=S)s2)cc1` in this assay.
0 (no)

* * *

Would you kindly list growth for each of these compounds?
Test system: CCRF-CEM leukemia
Assay: NCI-60 one-dose screen, 48 h (100 = growth as untreated, 0 = no growth, -100 = all killed)
Conditions: 10 µM unless noted
Compounds without any hit were thinned out: in the full panel of roughly 83,000, 20% have a hit.
One number for each entry, in %.

Field: example entries. Status: answers known.
| COMPOUND | OBSERVED MEASUREMENT |
| --- | --- |
| O=C1C(=O)c2cccnc2-c2ncccc21 | -32.6 |
| O=C(c1ccccc1)c1cc2ccccc2oc1=O | 101 |
| O=C(CCl)N1c2ccccc2Sc2c1ccc1ccccc21 | 6.54 |
| O=[N+]([O-])c1ccc(C2N(Cc3ccc(Cl)cc3)CCN2Cc2ccc(Cl)cc2)cc1 | 83.5 |
| CCCCC(CCc1ccc([N+](=O)[O-])cc1)(C(C)=O)C(=O)OCC (configuration not stated) | 94.5 |

Could you tell me growth for each of these compounds? They are listed below.
1. O=C1/C(=C/c2ccccc2)CCC/C1=C\c1ccccc1
2. CCOC(=O)c1c(C)[nH]c2ccc(O)cc12
3. Cc1cc(=O)oc2cc(O)cc(O)c12
4. CN(C)c1ccc2cc3c(cc2c1)Oc1ccccc1N3.[Cl][Zn][Cl]
5. COc1cc(/C=C/C(=O)CC(=O)/C=C/c2ccc(O)c(OC)c2)ccc1O

[76.3, 77.5, 107, 31.4, 5.28]

Could you tell me growth for each of these compounds? They are listed below.
1. NC(=S)N/N=C\c1nccc2c(N)cccc12
2. Oc1ccc(Cl)cc1C(c1cc(Cl)ccc1O)C(Cl)(Cl)Cl

1. 8.4
2. 19.1

* * *

Would you kindly list growth for each of these compounds?
Test system: OVCAR-8 ovarian
Assay: NCI-60 one-dose screen, 48 h (100 = growth as untreated, 0 = no growth, -100 = all killed)
Details: 10 µM unless noted
Compounds without any hit were thinned out: in the full panel of roughly 83,000, 20% have a hit.
Answers are plain numbers, in %.

| COMPOUND | UNIT OF MEASUREMENT | growth |
| --- | --- | --- |
| O=C1C(=O)c2cc([N+](=O)[O-])ccc2-c2ccccc21 | % | -58.6 |
| NC(=S)Nc1ccc2c(c1)Cc1ccccc1-2 | % | 84.5 |
| O=C(CCl)N1c2ccccc2Sc2c1ccc1ccccc21 | % | 64.2 |

Could you tell me growth for each of these compounds? They are listed below.
1. CC1=CC(=O)C=CC1(C)C(Cl)(Cl)Cl (stereo not drawn)
2. O=C(O)c1ccc2c(c1)C(=O)c1ccccc1C2=O
3. CCOC(=O)C1(C)CCCC1N (stereo not drawn)
4. N#CCc1cccc2ccccc12
5. Cc1cc(=O)oc2cc(O)cc(O)c12

1. 90.3
2. 98.9
3. 106
4. 105
5. 105

Could you tell me growth for each of these compounds? They are listed below.
1. CN(C)c1ccc2cc3c(cc2c1)Oc1ccccc1N3.[Cl][Zn][Cl]
2. CN(C)c1ccc(/C=C/c2ccnc3ccccc23)cc1
3. Cc1c(O)ccc(SC#N)c1C
4. COc1ccc(C(Cn2ccnc2)Sc2ccc(Cl)c(Cl)c2)cc1 (stereo not drawn)
5. CCCCCCCCCCCC[S+](C)CC(=O)[O-] (stereo not drawn)

70.2
20.2
102
91
45.5

* * *

System: HCT-15 colon
Test: NCI-60 one-dose screen, 48 h
Conditions: 10 µM unless noted
This is part of a sample that, as a whole, favours compounds with a hit. Of some 83,000 tested, about 20% had one in any assay. Activity calls are given as the source filed them. Rule for the calls: active = growth percent below 10; inactive = the rest.
In this exercise, the only acceptable responses are label 1 = active, label 0 = inactive

Field: example entries. Status: answers known.
| COMPOUND | ASSIGNED CATEGORY |
| --- | --- |
| O=C(c1ccccc1)C(Br)C(Br)c1ccccc1 (configuration not stated) | label 0 |
| CCOc1ccc(C(CN2CCOCC2)C(C)=O)cc1OC (configuration not stated) | label 0 |
| NC(=S)N/N=C\c1nccc2c(N)cccc12 | label 0 |
| O=[N+]([O-])c1ccc(C(Br)c2ccc([N+](=O)[O-])cc2)cc1 | label 0 |
| CCOc1ccc2c(c1)/C(=C\C=C\C1CC(C)C3CC(OCC)CCC3N1CC)CC(C)N2CC (configuration not stated) | label 0 |

Answer briefly: the call reported for `Oc1cc(Cl)ccc1Cc1ccc(Cl)cc1O` in this assay.
label 0

* * *

Tested on: LOX IMVI melanoma
Test: NCI-60 one-dose screen, 48 h (100 = growth as untreated, 0 = no growth, -100 = all killed)
Conditions: 10 µM
This is part of a sample that, as a whole, favours compounds with a hit. Of some 83,000 tested, about 20% had one in any assay.
Mark fulfilled only when growth stays strictly below 50%. Values equal to the cut-off are not fulfilled.

Field: example entries. Status: answers known.
| MOLECULE | ASSIGNED CATEGORY |
| --- | --- |
| CC(=O)C1Cc2ccccc2C1=O (configuration not stated) | not fulfilled |
| CCOC(=O)c1[nH]c(C#N)c(C(=O)OCC)c1C | not fulfilled |
| CC(=O)Nc1ccc(C(=O)CCl)cc1 | fulfilled |
| O=C1C=CC(=O)N1c1cccc2c1CCCC2 | not fulfilled |
| CC(C)=CCCC(C)C1=C(O)C(=O)C(C)=CC1=O (configuration not stated) | not fulfilled |

Regarding `Cc1ccc(N2C(=O)C=CC2=O)cc1` , kindly confirm whether its growth is beneath 50%.
not fulfilled

Regarding `O=C1C(=O)c2cc([N+](=O)[O-])ccc2-c2ccccc21` , kindly confirm whether its growth is beneath 50%.
fulfilled

Regarding `CC(C)(C)c1ccc(O)c(Br)c1` , kindly confirm whether its growth is beneath 50%.
not fulfilled

Regarding COc1ccc(C(OCC2OC(n3ccc(NC(=O)c4ccccc4)nc3=O)C(O)C2O)(c2ccccc2)c2ccccc2)cc1 (configuration not stated) , kindly confirm whether its growth is beneath 50%.
fulfilled

Regarding `Cn1c(-c2ccccc2)c(/C=C/C2=[N+](C)c3ccccc3C2(C)C)c2ccccc21` , kindly confirm whether its growth is beneath 50%.
fulfilled

Regarding `CC/C(=C(/CC)c1ccc(O)cc1)c1ccc(O)cc1` , kindly confirm whether its growth is beneath 50%.
not fulfilled

Regarding `NC(=Nc1nc(-c2ccccn2)cc2ccccc12)c1ccccn1` , kindly confirm whether its growth is beneath 50%.
fulfilled

* * *

System: MOLT-4 leukemia
Assay: NCI-60 one-dose screen, 48 h (100 = growth as untreated, 0 = no growth, -100 = all killed)
Settings: 10 µM unless noted
Protocol: Growth inhibition of the MOLT-4 human tumor cell line is measured as a screen for anti-cancer activity. Cells are grown in 96 well plates and exposed to the test compound for 48 hours. Compounds are tested at a single concentration, which is 10^-5 M for most compounds. The reported endpoint is percent growth (GI% or GIPRCNT), where numbers from 0 - 100% represent growth inhibition, and numbers from -100% - 0 represent cell death. For example, a value of 40 represents 60% growth inhibition. […]
About 83,000 compounds went through this panel and 20% of them were active in at least one assay; those are over-represented in the sample as a whole. *1 amine or outer side, *2 acyl side, *3 side chain or, on linkers, in order; H or OH if unused. Where a SMILES comes first, the peptide text is derived from it. Bridges are numbered along the chain shown (N, C = ends). Roman numbers before positions name the chains, in order. [ ]: non-standard residue; d: D form. Actinocin(1to9) = Cc1c2oc3c(C)ccc(C(=O)[*:2])c3nc-2c(C(=O)[*:1])c(N)c1=O; NMeV = CN[CH](C(=O)O)C(C)C; Sar = CNCC(=O)O
ASSAY READOUT: growth (%)
One number for each entry, in %.

Field: example entries. Status: answers known.
| MOLECULE | OBSERVED MEASUREMENT |
| --- | --- |
| O=C1/C(=C\c2ccc([N+](=O)[O-])cc2)CS(=O)(=O)C/C1=C/c1ccc([N+](=O)[O-])cc1 | -34.7 |
| O=[N+]([O-])c1cc(-c2ccccc2)c(O)c([N+](=O)[O-])c1 | 71.9 |

Could you tell me growth for each of these molecules? They are listed below.
1. CC(C)Nc1ccc(Nc2ccc(NC(C)C)cc2)cc1
2. O=[N+]([O-])c1ccc(C(Br)c2ccc([N+](=O)[O-])cc2)cc1
3. Nc1nc2ncc(CNc3ccc(C(=O)NC(CCC(=O)NC(CCC(=O)NC(CCC(=O)NC(CCC(=O)NC(CCC(=O)O)C(=O)O)C(=O)O)C(=O)O)C(=O)O)C(=O)O)cc3)nc2c(=O)[nH]1 (stereo unspecified)
4. Cn1c(-c2ccccc2)c(/C=C/C2=[N+](C)c3ccccc3C2(C)C)c2ccccc21
5. CCC1CCCCN1C(=S)N/N=C(\C)c1ccccn1 (stereo unspecified)
6. CCOc1ccc(Nc2nc3c(s2)C(=O)c2ccccc2C3=O)cc1
7. CCC(C)C1NC(=O)C(NC(=O)c2c3nc4c(C(=O)NC5C(=O)NC(C(C)CC)C(=O)N6CCCC6C(=O)N(C)CC(=O)N(C)C(C(C)C)C(=O)OC5C)ccc(C)c4oc-3c(C)c(=O)c2N)C(C)OC(=O)C(C(C)C)N(C)C(=O)CN(C)C(=O)C2CCCN2C1=O (stereo unspecified) (I: TIP[Sar][NMeV] / II: TIP[Sar][NMeV]; ester I:1-I:C, II:1-II:C; linker I:N-II:N via Actinocin(1to9); configuration not given here)
8. COc1cc2c(c(OC)c1OC)-c1ccc(NCc3ccccc3)c(=O)cc1[C@@H](NC(C)=O)CC2

1: 30.1; 2: 12.5; 3: 107; 4: -10.6; 5: 13.3; 6: 48.5; 7: -0.501; 8: 3.29

Could you tell me growth for each of these molecules? They are listed below.
1. O=C(C[P+](c1ccccc1)(c1ccccc1)c1ccccc1)c1ccccc1
2. CN1CCC(CN2c3ccccc3Sc3ccccc32)C1 (stereo unspecified)
3. CCCCCCCCCCCCSC(=N)N
4. COc1cc(-c2ccc(-[n+]3nc(-c4ccc([N+](=O)[O-])cc4)nn3-c3ccc([N+](=O)[O-])cc3)c(OC)c2)ccc1-[n+]1nc(-c2ccc([N+](=O)[O-])cc2)nn1-c1ccc([N+](=O)[O-])cc1
5. Oc1c(Cl)cc(Cl)cc1C(c1cc(Cl)cc(Cl)c1O)C(Cl)(Cl)Cl
6. O=C(Cc1nc2cc(Cl)c(Cl)cc2nc1CC(=O)c1cccnc1)c1cccnc1

1. 92.3
2. 79.1
3. -37.1
4. 17.9
5. 3.86
6. 38.8

Attribution: PubChem BioAssay (NCI)
